Literature Ki values, system: Adenosine receptor A2a (Homo sapiens, UniProt P29274).
Sequence (P29274 whole entry): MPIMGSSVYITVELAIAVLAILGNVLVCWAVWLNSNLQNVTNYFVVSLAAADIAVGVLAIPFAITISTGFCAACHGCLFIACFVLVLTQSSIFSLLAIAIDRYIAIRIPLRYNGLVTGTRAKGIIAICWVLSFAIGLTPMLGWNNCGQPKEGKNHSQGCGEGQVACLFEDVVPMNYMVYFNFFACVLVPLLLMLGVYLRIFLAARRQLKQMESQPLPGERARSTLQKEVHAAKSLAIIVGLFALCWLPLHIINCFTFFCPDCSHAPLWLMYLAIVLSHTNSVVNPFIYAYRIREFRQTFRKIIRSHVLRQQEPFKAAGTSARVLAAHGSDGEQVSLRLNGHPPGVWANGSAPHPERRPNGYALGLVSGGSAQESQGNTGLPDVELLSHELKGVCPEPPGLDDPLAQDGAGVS

Cc1ccc(Nc2nc(-c3ccc(C)cc3)c(C(=O)Nc3sc4c(c3C#N)CCCC4)s2)cc1 > 10 µM
Cn1cc2c(nc(NC(=O)NC3CCN(C(=O)NC4CCCCC4)CC3)n3nc(-c4ccco4)nc23)n1 > 5 µM

Moving on to the next compound.
Request: I'd like to know its Ki. The compound in question is `O=C(O)[C@H]1CC[C@@H](OC2CCN(c3ccc(-c4nc5cc(F)ccc5[nH]4)cn3)CC2)CC1`
Result: > 10 µM

====

Literature Ki values, system: UniProtKB P29274.
Return type: number; implicit unit nM.

In the examples that follow, each entry is paired with its recorded Ki.
Compound	Ki (nM)
O[C@H]1CCC[C@@H]1Nc1nc(C#Cc2ccc(Cl)s2)nc2[nH]cnc12	7070
CCCn1c(=O)c2[nH]c(-c3cnn(Cc4cc(-c5ccc(Cl)cc5)on4)c3)nc2n(CCC)c1=O	1200
CC(=O)COc1ccc(N2CCN(CCn3ncc4c3nc(N)n3nc(-c5ccco5)nc43)CC2)cc1	0.8
COc1ccc(CC(=O)Nc2cc(-n3nc(C)cc3C)nc(-c3ccc(C)o3)n2)cc1C	3

Request: Find the measured Ki: item `CCCn1c(=O)c2[nH]c([C@H]3CC[C@H](CO)CC3)nc2n(CCC)c1=O` , target or system UniProtKB P29274.
Result: 313

Request: Find the measured Ki: item CCC(C)n1cnc2c(N)ncnc21 (configuration not stated) , target or system UniProtKB P29274.
Result: 16000

Request: Find the measured Ki: item NC(c1csc(Nc2nncc3ccccc23)n1)c1ccccc1Cl (configuration not stated) , target or system UniProtKB P29274.
Result: 2400

====

Literature log10 of Ki values, system: Adenosine receptor A2a (Homo sapiens).
Note the log scale: values are log10 of Ki expressed in nM.

Request: Find the measured log10 of Ki: item `CC[C@@H]1CN2C(=O)N(C)c3nc(-c4ccccc4)[nH]c3C2=N1` , target or system Adenosine receptor A2a (Homo sapiens).
Result: 2.03

Request: Find the measured log10 of Ki: item `COc1cc(C(=O)Nc2nccs2)ccc1NC(=O)CC(C)(C)C` , target or system Adenosine receptor A2a (Homo sapiens).
Result: 1.23

Request: Find the measured log10 of Ki: item `CCCOc1cc(NC(C)=O)nc(SC)n1` , target or system Adenosine receptor A2a (Homo sapiens).
Result: 3.05

Request: Find the measured log10 of Ki: item `Cn1cc2c(nc(NC(=O)Nc3ccco3)n3nc(-c4ccco4)nc23)n1` , target or system Adenosine receptor A2a (Homo sapiens).
Result: 2.54

Request: Find the measured log10 of Ki: item `Nc1nc(NC(=O)c2ccccc2F)c([N+](=O)[O-])c(-c2ccco2)n1` , target or system Adenosine receptor A2a (Homo sapiens).
Result: 1.36

====

Literature Ki values, system: Adenosine receptor A2a (Homo sapiens, UniProt P29274).
Return type: number; implicit unit nM.

Smiles Structure	Ki (nM)
CCCn1c(=O)c2[nH]c(-c3ccccc3)nc2n(CCCOC)c1=O	339
CCC(=O)Nc1ccc(C(=O)Nc2nccs2)cc1	890
O=C(Nc1ccccc1)Nc1nc(NCc2ccccc2)nc2nc(-c3ccco3)nn12	1.44
CCCn1c(=O)c2[nH]c(-c3ccc(OCC(=O)Nc4ccc(C(=O)OCC)cc4)cc3)cc2n(CCC)c1=O	100
CCc1nc2c(=O)n(Cc3ccccc3)nc(-c3ccncc3)c2c2cc(-c3ccccc3)nn12	2490
COc1ccc(-c2cn3c(=O)n(-c4ccccc4)nc3c(N)n2)cc1	7.2
CCn1nnc([C@H]2O[C@@H](n3cnc4c(N)nc(N[C@H](C)Cc5ccccc5)nc43)[C@H](O)[C@@H]2O)n1	13.2
O=C(Cc1ccc(-c2ccccc2)cc1)Nc1nc2nn(CCc3ccccc3)cc2c2nc(-c3ccco3)nn12	46.9

Request: Find the measured Ki: item `Nc1nc(N/N=C/c2ccc(Br)cn2)nc2c1ncn2[C@@H]1O[C@H](CO)[C@@H](O)[C@H]1O` , target or system Adenosine receptor A2a (Homo sapiens, UniProt P29274).
Result: 239

Request: Find the measured Ki: item `CCCn1c(=O)c2[nH]c(-c3ccc(OCC(=O)NCc4ccccc4)cc3)cc2n(CCC)c1=O` , target or system Adenosine receptor A2a (Homo sapiens, UniProt P29274).
Result: 89.1

Request: Find the measured Ki: item `O=C(Nc1nc(-c2ccccc2)c(-c2nc3ccccc3c(=O)[nH]2)s1)c1ccco1` , target or system Adenosine receptor A2a (Homo sapiens, UniProt P29274).
Result: 8780

Request: Find the measured Ki: item `Nc1nc2c(cnn2CCCc2ccc3c(c2)O[C@@H](C(=O)O)O3)c2nc(-c3ccco3)nn12` , target or system Adenosine receptor A2a (Homo sapiens, UniProt P29274).
Result: 59

Request: Find the measured Ki: item `CCc1nc(-c2ncc[nH]2)c2sccc2n1` , target or system Adenosine receptor A2a (Homo sapiens, UniProt P29274).
Result: 142

====

Literature Ki values, system: UniProt:P29274.

Request: Find the measured Ki: item `CCOC(=O)c1c(NC(=O)c2sc(Nc3ccc(OC)cc3)nc2-c2ccc(C)cc2)sc2c1CCCC2` , target or system UniProt:P29274.
Result: > 10 µM

Request: Find the measured Ki: item `CNC(=O)c1cnn(-c2nc(NC)c3ncn([C@@H]4O[C@H](CO)[C@@H](O)[C@H]4O)c3n2)c1` , target or system UniProt:P29274.
Result: > 6 µM

Request: Find the measured Ki: item `c1ccc(-n2cc3cnc4ccccc4c3n2)cc1` , target or system UniProt:P29274.
Result: > 1 µM

Request: Find the measured Ki: item `Nc1cc(-c2ccccc2)cn2cc(-c3ccco3)nc12` , target or system UniProt:P29274.
Result: > 10 µM

Request: Find the measured Ki: item `CC1(C)CC(Nc2ncnc3c2ncn3[C@@H]2O[C@H](CO)[C@@H](O)[C@H]2O)CC(C)(C)N1` , target or system UniProt:P29274.
Result: > 10 µM

Request: Find the measured Ki: item `O=C(Nc1nc2nn(CCc3ccccc3)cc2c2nc(-c3ccccc3)nn12)c1ccccc1` , target or system UniProt:P29274.
Result: 0.963 µM

Request: Find the measured Ki: item `O=c1[nH]c(-c2ccccc2)cn2c(=O)n(-c3ccccc3O)nc12` , target or system UniProt:P29274.
Result: > 30 µM

Request: Find the measured Ki: item `Nc1ncnc2c1ncn2C1CCCCC1` , target or system UniProt:P29274.
Result: > 100 µM

Request: Find the measured Ki: item `OC[C@H]1O[C@@H](n2cnc3c(NC4CCCC4)nc(-n4cccn4)nc32)[C@H](O)[C@@H]1O` , target or system UniProt:P29274.
Result: > 5 µM

====

pKi: −log10 of the molar value.
Literature pKi values, system: Adenosine receptor A2a (Homo sapiens).

In the examples that follow, each entry is paired with its recorded pKi.
Compound	System Under Test	pKi
CCNC(=O)[C@H]1OC(n2cnc3c(NC(=O)Nc4ccc(S(=O)(=O)N(CC)CC)cc4)ncnc32)C(O)C1O (single isomer, unassigned)	Adenosine receptor A2a (Homo sapiens)	< 6.00
CCCn1c(=O)c2c(nc3[nH]c(CC)cn32)n(Cc2ccccc2)c1=O	Adenosine receptor A2a (Homo sapiens)	< 6.00
Cc1ccc(NC(=Nc2nc3nn(C)cc3c3nc(-c4ccco4)nn23)Nc2ccc(C)cc2)cc1	Adenosine receptor A2a (Homo sapiens)	< 6.00

Moving on to the next compound.
Request: Find the measured pKi: item Cc1cc(-c2nc3c([nH]2)C2=NC(C)CN2C(=O)N3Cc2ccccc2)n(C)n1 (racemic) , target or system Adenosine receptor A2a (Homo sapiens).
Result: < 5.30

====

Literature Ki values, system: UniProt P29274.
Return type: number; implicit unit µM.

In the examples that follow, each entry is paired with its recorded Ki.
Smiles Structure	Endpoint Unit	Ki
Cn1cc2c(nc(NC(=O)Cc3c(Cl)cccc3Cl)n3nc(-c4ccco4)nc23)n1	µM	0.0452
COc1ccc(CNc2ncc(C(=O)O)c3nc(-c4ccco4)nn23)cc1	µM	12.4
COC(=O)c1cccc(CSc2nc(N)c(C#N)c(-c3cccnc3)c2C#N)c1	µM	0.636
CC(C)Cn1c(=O)c2[nH]c(-c3cnn(Cc4ccccc4)c3)nc2n(CC(C)C)c1=O	µM	1.1
CNC(=O)[C@]12C[C@@H]1[C@@H](n1cnc3c(NCc4cccc(F)c4)nc(Cl)nc31)[C@H](O)[C@@H]2O	µM	5.1
N#Cc1c(N)nc2c(C(N)=O)c(Nc3ccccc3)sc2c1-c1ccccc1	µM	0.63

Request: Find the measured Ki: item `Cc1ccc(-c2nc(N)nc3c2cnn3Cc2cccc(OCCCCCCC(=O)NO)c2)o1` , target or system UniProt P29274.
Result: 0.0528

Request: Find the measured Ki: item `O=c1[nH][nH]c2nc(-c3ccco3)c(-c3ccncn3)cc12` , target or system UniProt P29274.
Result: 0.177
